TGI: recorded values
- Test system: XF 498 CNS
- PROTOCOL_NOTES: NCI tumour cell line growth inhibition, 48 h

In the examples that follow, each entry is paired with its recorded TGI.
>  <MOLECULE>
COC(CN1C=C(Sc2ccccc2)CC1)OC

>  <ASSAYED_TARGET>
XF 498 CNS

>  <TGI>
66.3 µM

$$$$
>  <MOLECULE>
COCCOCOc1ccc(OCOCCOC)c2c1C(=O)c1ccccc1C2=O

>  <ASSAYED_TARGET>
XF 498 CNS

>  <TGI>
> 100 µM

$$$$
>  <MOLECULE>
CN1COc2c(n(C)c(=O)[nH]c2=O)C1

>  <ASSAYED_TARGET>
XF 498 CNS

>  <TGI>
> 100 µM

$$$$
>  <MOLECULE>
COc1ccc(C=O)c(NC(=O)C(C)C)c1

>  <ASSAYED_TARGET>
XF 498 CNS

>  <TGI>
68.9 µM

$$$$

Lookup: Report TGI for O=C(NC1CCCC1=O)c1ccccc1 (configuration not stated) please.
Found: > 100 µM

Lookup: Report TGI for Nc1ccc(C(=O)NN2C(=O)C(Cl)C2c2ccccc2)cc1 (configuration not stated) please.
Found: > 100 µM

Lookup: Report TGI for `Cc1cc(N(CCC#N)CCC#N)ccc1/C=C1/N=C(c2ccccc2)N(N)C1=O` please.
Found: > 100 µM
